B1: CCDC6 (parent)
chain: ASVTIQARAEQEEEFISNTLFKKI

- Variants of: B1
- METHOD_SUMMARY: protein stability index of a GFP-peptide fusion (GPS, HEK-293T) (PSI 1-6); higher = more stable;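 also: lentivirally expressed fusions sorted by FACS into six bins by GFP to DsRed ratio, PSI derived from sequencing read proportions per bin multiplied by bin number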
- CONDITION: c terminus: a fixed tail appended
A collection of variants and their measured protein stability index
Form rule: numeric answer, no unit written next to it.

Request: // protein stability index lookup, key: ASVTIQARAEQEEHFISNTLFKKI [E14H]
Response: 2.7

Request: What measured protein stability index goes with ASVTIQARAESEEEFISNTLFKKI [Q11S] ?
Response: 3.75

Request: Consider the variant ASVTIQARAEQEEECISNTLFKKI [F15C] and give its measured protein stability index.
Response: 4.19

Request: Consider the variant shown here: ASVTIQARAEQEEEFISNKLFKKI [T19K] What is its recorded protein stability index?
Response: 3.72

Request: # input variant: ASVTIQKRAEQEEEFISNTLFKKI [A7K] ; wanted: its protein stability index
Response: 3.69

Request: So what does the record say about protein stability index for ASVTIQAEAEQEEEFISNTLFKKI [R8E] ?
Response: 4.55

Request: What does the data say about its protein stability index? Entry: ASVTIFARAEQEEEFISNTLFKKI [Q6F]
Response: 2.89

Request: Which protein stability index value is on record for ASVTIQARAEQEEEFISNTLFKSI [K23S] ?
Response: 3.04

Request: Can you share its protein stability index? I mean this variant: ASVTIQARAEQEEEKISNTLFKKI [F15K]
Response: 4.13

Request: Quick one: protein stability index of ASVTIQARAEQEEEFHSNTLFKKI [I16H] ?
Response: 4.28

Request: What value of measured protein stability index is listed for ASVTIQARAEQEEEFISNTLSKKI [F21S] ?
Response: 4.37

Request: Give the measured protein stability index of ASVTIQARREQEEEFISNTLFKKI [A9R] .
Response: 3.61

Request: // query protein stability index value for entry CSVTIQARAEQEEEFISNTLFKKI [A1C]
Response: 3.07

Request: Suppose we examine the variant ASVTIQARAEQEEEVISNTLFKKI [F15V] ; what protein stability index value has been reported?
Response: 4.52

Request: So what's the measured protein stability index for this one? ASPTIQARAEQEEEFISNTLFKKI [V3P]
Response: 4.5

Request: GET /values?readout=protein stability index&item= ASVTIQAVAEQEEEFISNTLFKKI [R8V]
Response: 3.31

Request: Quick one: protein stability index of ASVTIQARAEQEEEFISNTLGKKI [F21G] ?
Response: 4.71

Request: Please give the measured protein stability index for this variant: ASVTIQARAEQEEEFISNTLFEKI [K22E]
Response: 3.74

Request: State the recorded protein stability index for this entry: ASVTIQARAEQEEEFISNTLLKKI [F21L]
Response: 4.78

Request: Can you look up the measured protein stability index of ASVQIQARAEQEEEFISNTLFKKI [T4Q] for me?
Response: 3.74

Request: # input variant: ASVTIQARAEQEEEFIHNTLFKKI [S17H] ; wanted: its protein stability index
Response: 3.58

Request: Suppose we examine the variant ASVTIQARAEQEEEFISYTLFKKI [N18Y] ; what protein stability index value has been reported?
Response: 2.07

Hey, just so you know, these numbers are from the supplement of paper PMC10567573.
